Where do the numbers come from? From patent US20100260765A1.

Biological target: T1, soluble KDR (VEGF Receptor 2 D1-7, Cat. #676490, Calbiochem) (human, UniProt P35968 20-764)
T1 construct: extracellular domain; Bought reagent; also called soluble human KDR; immobilized soluble KDR
T1 sequence (P35968 20-764): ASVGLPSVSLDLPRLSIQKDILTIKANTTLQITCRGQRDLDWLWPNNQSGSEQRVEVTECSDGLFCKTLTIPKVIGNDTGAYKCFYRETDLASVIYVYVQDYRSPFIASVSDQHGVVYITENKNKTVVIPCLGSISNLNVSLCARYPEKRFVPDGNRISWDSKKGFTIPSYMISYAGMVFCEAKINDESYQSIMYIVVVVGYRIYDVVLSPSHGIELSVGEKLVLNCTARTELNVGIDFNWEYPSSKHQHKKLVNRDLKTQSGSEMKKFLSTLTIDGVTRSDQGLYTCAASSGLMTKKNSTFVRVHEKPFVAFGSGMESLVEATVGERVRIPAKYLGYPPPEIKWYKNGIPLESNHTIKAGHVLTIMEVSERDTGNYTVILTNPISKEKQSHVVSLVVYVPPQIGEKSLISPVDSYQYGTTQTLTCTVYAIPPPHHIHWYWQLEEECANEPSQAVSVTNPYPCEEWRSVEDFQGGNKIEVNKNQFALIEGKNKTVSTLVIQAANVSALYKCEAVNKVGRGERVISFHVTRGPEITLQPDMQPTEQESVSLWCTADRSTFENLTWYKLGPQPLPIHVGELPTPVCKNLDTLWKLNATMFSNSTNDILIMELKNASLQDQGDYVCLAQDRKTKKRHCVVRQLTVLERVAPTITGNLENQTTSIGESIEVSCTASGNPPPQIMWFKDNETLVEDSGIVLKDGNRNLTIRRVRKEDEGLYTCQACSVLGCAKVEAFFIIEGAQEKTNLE
Test: ELISA, plate-coated soluble KDR 250 ng/mL, hybridoma supernatant 1:5
Quantity measured: KDR OD(450 nm)

anti-KDR monoclonal antibody 32F4 (antibody, V domains shown, Fully human mAb from XenoMouse (IgG2 or IgG4 strain); hybridoma supernatant) VH: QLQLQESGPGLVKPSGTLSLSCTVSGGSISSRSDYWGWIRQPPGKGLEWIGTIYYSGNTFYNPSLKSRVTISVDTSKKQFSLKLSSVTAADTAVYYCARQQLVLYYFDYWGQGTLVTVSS VL: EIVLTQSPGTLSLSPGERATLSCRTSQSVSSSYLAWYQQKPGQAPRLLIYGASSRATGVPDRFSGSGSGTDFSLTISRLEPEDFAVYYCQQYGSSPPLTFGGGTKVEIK    0.907 OD450

Fill in reported KDR OD(450 nm) for this entry: anti-KDR monoclonal antibody 21H9 (antibody, V domains shown, Fully human mAb from XenoMouse (IgG2 or IgG4 strain); hybridoma supernatant) VH: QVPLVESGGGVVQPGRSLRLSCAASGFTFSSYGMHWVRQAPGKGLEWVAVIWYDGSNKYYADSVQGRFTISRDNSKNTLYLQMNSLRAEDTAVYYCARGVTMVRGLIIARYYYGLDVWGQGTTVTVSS VL: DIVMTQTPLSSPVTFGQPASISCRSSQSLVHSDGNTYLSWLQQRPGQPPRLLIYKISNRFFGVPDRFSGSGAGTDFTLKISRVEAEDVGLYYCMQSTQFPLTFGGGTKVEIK
1.65 OD450
